Test system: methicillin-resistant Staphylococcus aureus (MRSA)
experiment_description: Determination of MIC values (BHI broth, 96 well microtiter plate)
Format: cell-based
condition_label: Staphylococcus aureus, MRSA; BHI broth, overnight 37° C.; read-out: MIC MRSA
Items are presented alongside their recorded MIC.

[[record]]
molecule = "Cn1cc(-c2cc(C(=O)NC3CCC(N)CC3)c3cc(Cl)ccc3n2)c2cc(Br)ccc21 (centres unmarked)"
tested_target = "methicillin-resistant Staphylococcus aureus (MRSA)"
outcome_measure = "MIC"
readout_value = "< 7 µg/mL"

[[record]]
molecule = "Cn1cc(-c2cc(C(=O)NCc3cccc(CN)c3)c3ccc(I)cc3n2)c2cc(Br)ccc21"
tested_target = "methicillin-resistant Staphylococcus aureus (MRSA)"
outcome_measure = "MIC"
readout_value = "< 7 µg/mL"

[[record]]
molecule = "NCc1ccc(CNC(=O)c2cc(-c3c[nH]c4ccc(Br)cc34)nc3ccc(/C=C/c4ccccc4)cc23)cc1"
tested_target = "methicillin-resistant Staphylococcus aureus (MRSA)"
outcome_measure = "MIC"
readout_value = "> 25 µg/mL"

[[record]]
molecule = "Cn1cc(-c2cc(C(=O)NCc3cccc(CN)c3)c3ccccc3n2)c2cc(Br)ccc21"
tested_target = "methicillin-resistant Staphylococcus aureus (MRSA)"
outcome_measure = "MIC"
readout_value = "< 7 µg/mL"

[[record]]
molecule = "COc1ccc2[nH]cc(-c3cc(Cl)c4ccccc4n3)c2c1"
tested_target = "methicillin-resistant Staphylococcus aureus (MRSA)"
outcome_measure = "MIC"
readout_value = "< 7 µg/mL"

[[record]]
molecule = "CC(C)(C)OC(=O)n1cc(/C=N/c2cccc(Cl)c2)c2cc(Br)ccc21"
tested_target = "methicillin-resistant Staphylococcus aureus (MRSA)"
outcome_measure = "MIC"
readout_value = "> 25 µg/mL"

[[record]]
molecule = "Cn1cc(-c2cc(C(=O)NCc3ccc(CN)cc3)c3cc(C#CCN4CCCC4)ccc3n2)c2cc(Br)ccc21"
tested_target = "methicillin-resistant Staphylococcus aureus (MRSA)"
outcome_measure = "MIC"
readout_value = "< 7 µg/mL"


We now examine a further molecule.
Item `CN(C)CCNCC#Cc1ccc2nc(-c3cn(C)c4ccc(Br)cc34)cc(C(=O)NCc3ccc(CN)cc3)c2c1` has what recorded MIC?
< 7 µg/mL

Recorded values, source patent US6376670B1.
